Test: qHTS of pediatric cancer cell lines to identify multiple opportunities for drug repurposing: Primary screen for DAOY cells (AID 1347090); note: nearly all actives have a fitted effect of over 55% in size
Settings: DAOY medulloblastoma viability, CellTiter-Glo luminescence, 48 h; series mostly up to 46 µM
Method: Drug repurposing or repositioning has been offered as a strategy for drug development in oncology programs. […] [1] Shen, M et al. Quantitative high-throughput phenotypic screening of pediatric cancer cell lines identifies multiple opportunities for drug repurposing. […] Cells were assayed in growth media at a density of 500-1,000 cells/well. […] After a 15 min incubation at room temperature, samples were analyzed for luminescence intensity using a ViewLux High-throughput CCD imager equipped with clear filters.
Inconclusive results are not listed. Activity calls are given as the source filed them. Calls come from the whole dose curve; as a rule, active = well fitted cell-killing curve with a large enough effect; inconclusive = small, poorly fitted or top-dose-only effect; inactive = flat fitted curve, though single readings scatter.
EXPERIMENTAL_READOUT: outcome

COc1cc(C)nc(-n2nc(C)cc2OC)n1
inactive
CCCCNc1ccc(C(=O)OCCOCCOCCOCCOCCOCCOCCOCCOCCOC)cc1
inactive
CC(=O)OCC1=C(C(=O)O)N2C(=O)[C@@H](NC(=O)CSc3ccncc3)[C@H]2SC1
inactive
CCOc1cc(OCC)c(C(=O)CCC(=O)O)cc1OCC
inactive
CN(C)CCC[C@@]1(c2ccc(F)cc2)OCc2cc(C#N)ccc21
inactive
CN(CCCN1c2ccccc2CCc2ccccc21)CC(=O)c1ccc(Cl)cc1
inactive
CCN(CC)CCNC(=O)c1cc(Br)c(N)cc1OC
inactive
N#CCC(=O)NN
inactive
O=C1C(=O)c2ccccc2C(O)=C1C1CCC(c2ccc(Cl)cc2)CC1 (centres undefined)
inactive
